Tested on: Streptococcus pneumoniae ATCC 49619
Assay: checkerboard synergy assay with iclaprim
Type: cell-based
Conditions: antibiotic in combination with iclaprim; S. pneumoniae 49619
reported metric: Σ FIC

[in] For C[C@H]1c2cccc(O)c2C(=O)C2=C(O)[C@]3(O)C(=O)C(C(N)=O)=C(O)[C@@H](N(C)C)[C@@H]3[C@@H](O)[C@@H]21 [Doxycycline] , what is its reported Σ FIC?
[out] 1.02-1.51

[in] // same read-out, input: CC1(C)S[C@@H]2[C@H](NC(=O)Cc3ccccc3)C(=O)N2[C@H]1C(=O)O [Penicillin G]
[out] 1.00-1.25

[in] // same read-out, input: C[C@@H]1O[C@@H]1P(=O)(O)O [Fosfomycin]
[out] 1.06-1.50

[in] // same read-out, input: CC[C@H]1OC(=O)[C@H](C)[C@@H](O[C@H]2C[C@@](C)(OC)[C@@H](O)[C@H](C)O2)[C@H](C)[C@@H](O[C@@H]2O[C@H](C)C[C@H](N(C)C)[C@H]2O)[C@](C)(O)C[C@@H](C)/C(=N\OCOCCOC)[C@H](C)[C@@H](O)[C@]1(C)O [Roxithromycin]
[out] 1.02-1.50

[in] // same read-out, input: Cc1onc(-c2ccccc2Cl)c1C(=O)N[C@@H]1C(=O)N2[C@@H]1SC(C)(C)[C@@H]2C(=O)O [Cloxacillin]
[out] 1.00-1.25

[in] // same read-out, input: CO[C@@]1(NC(=O)C(C(=O)O)c2ccc(O)cc2)C(=O)N2C(C(=O)O)=C(CSc3nnnn3C)CO[C@@H]21 (stereo partly shown) [Moxalactam]
[out] 1.00-1.25

[in] // same read-out, input: NC(=O)c1cc[n+](CC2=C(C(=O)O)N3C(=O)[C@@H](NC(=O)[C@@H](c4ccccc4)S(=O)(=O)[O-])[C@H]3SC2)cc1 [Cefsulodine, Cefsulodin]
[out] 1.13-1.50
